System: PKN2;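 also: KINOMEscan kinase panel screen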
setup_conditions: concentration: 1 μM, replicates: in singlicate; n = 1
property_name: %Inh

O=C(O)C(F)(F)F.O=c1[nH]ccc2nc(N[C@@H]3CCNC3)nc(Nc3cc(Cl)cc(Cl)c3)c12    81%
CCn1c(-c2nonc2N)nc2c(-c3ccccc3)ncc(OCCCN)c21.O=C(O)C(F)(F)F.O=C(O)C(F)(F)F    0%
Cc1nn2c(=O)cc(N3CCO[C@H](C)C3)nc2n1Cc1cccc(Cl)c1Cl    0%
Cn1cc(-c2ccc3c(c2)CCN3C(=O)Cc2cc(F)cc(C(F)(F)F)c2)c2c(N)ncnc21    0%
COc1cc(Nc2ccnc3cc(-c4ccncc4)ccc23)cc(OC)c1OC.Cl    7%
COc1cccc2c(-c3ccncc3)c(-c3ccc(F)cc3)nn12    0%
CCNC(=O)/C=C/c1n[nH]c2cc(Sc3ccccc3C(=O)NC)ccc12    17%
Cc1ccc(NC(=O)c2cccc(N3CCCCC3)c2)cc1-c1ccc(C(=O)NCC2CC2)cc1    0%
CN(c1ccc(NC(=O)N2CCN(CCCN3CCOCC3)CC2)cc1)c1ccnc(Nc2ccc(CS(C)(=O)=O)cc2)n1.Cl    0%
Cc1cc(-c2c(-c3ccc(F)cc3)ncn2CCCN2CCOCC2)nc(N)n1    10%
COc1cccc(C2=C(Nc3cccc(O)c3)C(=O)NC2=O)c1    0%

Data provenance is paper PMC5540273.
